Cited source: the RNAGym collection of RNA variant scans (doi:10.7554/elife.80360)

What self-cleavage was measured for each of the following?
B1: Hairpin Ribozyme (parent)
chain: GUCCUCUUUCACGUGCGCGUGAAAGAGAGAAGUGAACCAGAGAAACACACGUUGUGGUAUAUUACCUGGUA

Variants of: B1
test_summary: self-cleavage, relative activity (ratio to wild type); higher = more cleavage; co-transcriptional
Output spec: single numeric token, no unit.

Quick note, self-cleavage for C46U A61G landed at 0.129

Quick note, self-cleavage for C12U U52G landed at 0.875

Quick note, self-cleavage for A36C C66A landed at 0.268

Quick note, self-cleavage for U14C U62A landed at 0.142

Quick note, self-cleavage for G34C A45G landed at 0.368

Quick note, self-cleavage for G19U U58G landed at 0.672

Quick note, self-cleavage for U2G A31U landed at 0

Quick note, self-cleavage for G21C A45G landed at 0.192

Quick note, self-cleavage for C10A G29A landed at 0.111

Quick note, self-cleavage for G21U A64U landed at 0.113

Quick note, self-cleavage for C37G U53C landed at 0.586
